Hello, the source for this data is paper PMC10711598, in case you need it.

- STUDY_TARGET: SARS-CoV-2 papain-like protease (Severe acute respiratory syndrome coronavirus 2, UniProt P0DTD1)
- ASSAY_INFO: SensoLyte 520 SARS-CoV-2 papain-like protease activity assay
- Assay type: biochemical
- TEST_SETTINGS: within tested dose range
Listing: Dose at maximal observed inhibition of PP of selected molecules
Value expressed in µM; do not type the unit.

Recorded Dose at maximal observed inhibition of PP, per entry:
Fill in: Dose at maximal observed inhibition of PP of Nc1nc2ncc(CNc3ccc(C(=O)N[C@@H](CCC(=O)O)C(=O)O)cc3)nc2c(=O)[nH]1 is ___
5

Fill in: Dose at maximal observed inhibition of PP of C=C[C@]1(C)C[C@@H](OC(=O)CS[C@@H]2C[C@H]3CC[C@@H](C2)N3C)[C@]2(C)[C@H](C)CC[C@]3(CCC(=O)[C@H]32)[C@@H](C)[C@@H]1O is ___
5

Fill in: Dose at maximal observed inhibition of PP of Cc1ncc(CO)c(CO)c1O is ___
20.0

// switching to the query molecule
Fill in: Dose at maximal observed inhibition of PP of CC[C@H]1OC(=O)[C@H](C)[C@@H](O[C@H]2C[C@@](C)(OC)[C@@H](O)[C@H](C)O2)[C@H](C)[C@@H](O[C@@H]2O[C@H](C)C[C@H](N(C)C)[C@H]2O)[C@](C)(O)C[C@@H](C)C(=O)[C@H](C)[C@@H](O)[C@]1(C)O is ___
10.0
